Target: oCOX-1 (ovine cyclooxygenase-1) (Ovis aries, UniProt P05979)
Sequence (P05979 25-600): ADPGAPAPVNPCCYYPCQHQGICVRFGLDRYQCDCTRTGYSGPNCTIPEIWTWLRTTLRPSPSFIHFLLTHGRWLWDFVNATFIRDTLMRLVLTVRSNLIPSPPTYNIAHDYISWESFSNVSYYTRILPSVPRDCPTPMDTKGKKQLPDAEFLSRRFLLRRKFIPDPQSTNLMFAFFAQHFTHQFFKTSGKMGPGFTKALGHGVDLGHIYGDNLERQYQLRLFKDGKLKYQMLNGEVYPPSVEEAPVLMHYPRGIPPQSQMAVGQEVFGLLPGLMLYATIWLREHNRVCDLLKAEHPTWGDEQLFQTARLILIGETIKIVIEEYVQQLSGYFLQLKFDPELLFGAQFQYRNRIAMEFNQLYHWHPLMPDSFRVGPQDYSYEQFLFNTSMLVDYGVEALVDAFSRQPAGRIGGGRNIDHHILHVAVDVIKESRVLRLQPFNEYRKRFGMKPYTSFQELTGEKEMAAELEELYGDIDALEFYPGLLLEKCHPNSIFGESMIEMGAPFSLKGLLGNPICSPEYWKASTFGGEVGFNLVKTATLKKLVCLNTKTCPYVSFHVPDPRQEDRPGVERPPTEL
pIC50: −log10 of the molar value.

compound: FCc1onc(-c2ccc(Cl)o2)c1-c1ccccc1 [[19F]-P6]
pIC50: 5.70

----------
Target: hCOX-1 (cyclooxygenase-1) (Homo sapiens, UniProt P23219)
Sequence (P23219 24-599): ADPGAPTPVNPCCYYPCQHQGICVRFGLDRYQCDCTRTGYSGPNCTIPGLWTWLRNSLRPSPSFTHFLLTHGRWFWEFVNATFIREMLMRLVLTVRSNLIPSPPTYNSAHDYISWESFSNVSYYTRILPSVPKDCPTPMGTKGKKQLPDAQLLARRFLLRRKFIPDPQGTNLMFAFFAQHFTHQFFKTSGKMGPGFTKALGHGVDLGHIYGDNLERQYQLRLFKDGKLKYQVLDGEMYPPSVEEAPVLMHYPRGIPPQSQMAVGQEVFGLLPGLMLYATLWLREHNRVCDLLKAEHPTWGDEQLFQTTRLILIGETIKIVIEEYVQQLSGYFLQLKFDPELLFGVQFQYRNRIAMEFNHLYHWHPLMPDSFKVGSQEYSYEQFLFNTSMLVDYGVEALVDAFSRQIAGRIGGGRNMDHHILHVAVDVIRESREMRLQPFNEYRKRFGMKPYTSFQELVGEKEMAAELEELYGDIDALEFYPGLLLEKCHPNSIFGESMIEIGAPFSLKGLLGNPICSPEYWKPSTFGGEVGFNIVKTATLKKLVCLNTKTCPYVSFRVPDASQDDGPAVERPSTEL
Experiment: [[…]-14C]-arachidonic acid metabolism in intact OVCAR-3 cells
pIC50: −log10 of the molar value.
measure.name: pIC50

molecule: FCc1onc(-c2ccc(Cl)o2)c1-c1ccccc1 [[19F]-P6]
measure.name: pIC50
measurement: 5.86
